Attribution: paper PMC3351444

# Experimental Protocol: In vitro peptide stability in human serum (RP-HPLC)
# Settings: human, human serum, 25% (v/v) in RPMI
Square brackets hold non-standard residues; d marks the D form. Peptide text beside a SMILES is read from it.
Documented log10(half-life at 50 µg/mL) across a set of compounds
Value Kind: log10(half-life at 50 µg/mL) (log10 of the value in h)

| Compound | Reading |
| --- | --- |
| CSCC[C@H](NC(=O)[C@H](N)Cc1ccc(O)cc1)C(=O)N1CCC[C@H]1C(=O)NCC(=O)N[C@@H](CCC(N)=O)C(=O)N[C@@H](Cc1ccc(O)cc1)C(=O)N[C@@H](C)C(=O)N[C@@H](Cc1ccccc1)C(=O)N[C@@H](CO)C(=O)O [compound 85] (H-[dY]MPGQYAFS-OH; N-terminus assumed) | 0.10 |
| CC(C)C[C@H](NC(=O)[C@@H](N)Cc1ccc(O)cc1)C(=O)N1CCC[C@H]1C(=O)NCC(=O)N[C@@H](CCC(N)=O)C(=O)N[C@@H](Cc1ccc(O)cc1)C(=O)N[C@@H](C)C(=O)N[C@H](C)C(=O)N[C@H](Cc1ccccc1)C(=O)O [compound 141] (H-YLPGQYA[dA][dF]-OH; N-terminus assumed) | -0.25 |
| CC(C)C[C@H](N)C(=O)N[C@H](Cc1c[nH]c2ccccc12)C(=O)NCC(=O)NCC(=O)N1CCC[C@H]1C(=O)N[C@@H](Cc1ccc(O)cc1)C(=O)N[C@H](Cc1c[nH]c2ccccc12)C(=O)N[C@@H](Cc1ccc(O)cc1)C(=O)N[C@H](CO)C(=O)O [compound 128] (H-L[dW]GGPY[dW]Y[dS]-OH; N-terminus assumed) | 0.90 |
| CC(C)C[C@H](NC(=O)[C@@H](N)Cc1ccc(O)cc1)C(=O)N1CCC[C@H]1C(=O)NCC(=O)N[C@@H](CCC(N)=O)C(=O)N[C@@H](Cc1ccc(O)cc1)C(=O)N[C@@H](C)C(=O)N[C@@H](Cc1ccc(O)cc1)C(=O)N[C@H](CO)C(=O)O [compound 87] (H-YLPGQYAY[dS]-OH; N-terminus assumed) | -0.09 |
| CC(C)C[C@H](NC(=O)[C@H](Cc1ccc(O)cc1)NC(=O)[C@H](CCC(N)=O)NC(=O)[C@@H](Cc1ccccc1)NC(=O)[C@@H](CC(=O)O)NC(=O)[C@@H]1CCCN1C(=O)[C@H](CC(C)C)NC(=O)[C@@H](N)Cc1ccc(O)cc1)C(=O)N1CCC[C@H]1C(=O)O [compound 148] (H-YLP[dD][dF]QYLP-OH; N-terminus assumed) | -0.27 |
| C[C@H](NC(=O)[C@@H](N)Cc1ccc(O)cc1)C(=O)N[C@@H](Cc1ccccc1)C(=O)N[C@H](CO)C(=O)N1CCC[C@H]1C(=O)NCC(=O)N[C@@H](CCC(N)=O)C(=O)N[C@@H](Cc1ccccc1)C(=O)N[C@H](CO)C(=O)O [compound 93] (H-YAF[dS]PGQF[dS]-OH; N-terminus assumed) | 0.13 |
| CC(C)C[C@H](NC(=O)[C@@H](N)Cc1ccc(O)cc1)C(=O)N1CCC[C@H]1C(=O)NCC(=O)N[C@@H](CCC(N)=O)C(=O)N[C@@H](Cc1ccccc1)C(=O)N[C@@H](C)C(=O)N[C@H](Cc1ccccc1)C(=O)N[C@@H](Cc1ccccc1)C(=O)O [compound 42] (H-YLPGQFA[dF]F-OH; N-terminus assumed) | -0.30 |
| CC(C)C[C@H](NC(=O)[C@@H](N)Cc1ccc(O)cc1)C(=O)N1CCC[C@H]1C(=O)N[C@H](Cc1c[nH]c2ccccc12)C(=O)N[C@@H](CCC(N)=O)C(=O)N[C@@H](Cc1ccc(O)cc1)C(=O)N[C@@H](C)C(=O)N[C@@H](Cc1ccccc1)C(=O)N[C@H](Cc1ccccc1)C(=O)O [compound 127] (H-YLP[dW]QYAF[dF]-OH; N-terminus assumed) | 0.32 |
| CC(C)C[C@H](NC(=O)[C@H](C)NC(=O)[C@H](Cc1ccc(O)cc1)NC(=O)[C@@H](Cc1ccc(O)cc1)NC(=O)CNC(=O)[C@@H]1CCCN1C(=O)[C@H](CC(C)C)NC(=O)[C@@H](N)Cc1ccc(O)cc1)C(=O)N[C@H](Cc1ccccc1)C(=O)O [compound 136] (H-YLPG[dY]YAL[dF]-OH; N-terminus assumed) | 0.21 |
| CC(C)C[C@H](NC(=O)[C@H](Cc1ccc(O)cc1)NC(=O)[C@@H](Cc1ccccc1)NC(=O)[C@@H]1CCCN1C(=O)[C@H](CC(C)C)NC(=O)[C@@H](N)Cc1ccc(O)cc1)C(=O)N1CCC[C@H]1C(=O)NCC(=O)N[C@H](Cc1ccccc1)C(=O)O [compound 145] (H-YLP[dF]YLPG[dF]-OH; N-terminus assumed) | -0.18 |
| CC(C)C[C@H](NC(=O)[C@H](N)Cc1ccc(O)cc1)C(=O)N1CCC[C@H]1C(=O)NCC(=O)N[C@@H](CCC(N)=O)C(=O)N[C@@H](Cc1ccc(O)cc1)C(=O)N[C@@H](C)C(=O)N[C@@H](Cc1ccccc1)C(=O)N[C@@H](CO)C(=O)O [compound 82] (H-[dY]LPGQYAFS-OH; N-terminus assumed) | 0.11 |
| CC(C)C[C@H](NC(=O)[C@H](N)Cc1ccc(O)cc1)C(=O)N1CCC[C@H]1C(=O)NCC(=O)N[C@H](Cc1c[nH]c2ccccc12)C(=O)N[C@@H](Cc1ccc(O)cc1)C(=O)N[C@@H](C)C(=O)N[C@@H](Cc1ccccc1)C(=O)N[C@H](Cc1ccccc1)C(=O)O [compound 142] (H-[dY]LPG[dW]YAF[dF]-OH; N-terminus assumed) | 0.85 |
